The reported measurements were obtained from patent US20250002564A1.

subject of test: SARS-CoV-2 Spike on wild-type pseudotyped virus (PsV) (SARS-CoV-2, UniProt P0DTC2 14-1273)
assay notes: cell-based or functional assay
Below, each entry is listed alongside its reported IC50 SARS-CoV2 PsV (IgG).
measured metric: IC50 SARS-CoV2 PsV (IgG)

* mAb 120 (antibody, V domains shown, also called IgG 120; Antibody 120) VH: QVQLVQSGAEVKKPGASVKVSCKASGYTFTSYDINWVRQAPGQGLEWMGMIDPSGGSTSYAQKFQGRVTMTRDTSTSTVYMELSSLRSEDTAVYYCAKDFGGGTRYDYWYFDLWGRGTLVTVSS VL: EIVMTQSPATLSVSPGERATLSCRASQSVSSRYLAWYQQKPGQAPRLLIYGASTRATGIPARFSGSGSGTEFTLTISSLQSEDFAVYYCQQYYTTPRTFGQGTRLEIKR | > 50 µg/mL
* mAb 158 (antibody, V domains shown, also called IgG 158; Antibody 158) VH: QVQLVQSGAEVKKPGASVKVSCKASGYTFTGYYMHWVRQAPGQGLEWMGWINPLNGGTNFAPKFQGRVTMTRDTSTSTVYMELSSLRSEDTAVYYCARDPGGSYSNDAFDIWGQGTLVTVSS VL: DIQMTQSPSSLSASVGDRVTITCRASQSISRYLNWYQQKPGKAPKLLIYDASNLESGVPSRFSGSGSGTDFTLTISSLQPEDFATYYCQQANSFPLTFGGGTKVDIKR | > 50 µg/mL
* mAb 178 (antibody, V domains shown, also called IgG 178; Antibody 178) VH: QVQLVQSGAEVKKPGASVKVSCKASGYTFTDYHMHWVRQAPGQGLEWMGWINPNSGGTNYAQKFQGRVTMTRDTSTSTVYMELSSLRSEDTAVYYCARDISSWYEITKFDPWGQGTLVTVSS VL: EIVMTQSPATLSVSPGERATLSCKASQSVSGTYLAWYQQKPGQAPRLLIYGASTRATGIPARFSGSGSGTEFTLTISSLQSEDFAVYYCLQTHSYPPTFGQGTKVEIKR | > 50 µg/mL
